Measured values drawn from paper PMC9458978 for this set.

MEASUREMENT_TYPE: melting point

# return recorded melting point for input CCCCC(=O)NS(=O)(=O)c1ccc(CC(C)C)cc1-c1cccc(Cn2cncn2)c1
138.4 to 139.7 °C

* * *

- SUBJECT_OF_TEST: AT2 receptor (Homo sapiens)
- Construct: expressed in transfected cells; host or cells: HEK-293
- Sequence (P50052 whole entry): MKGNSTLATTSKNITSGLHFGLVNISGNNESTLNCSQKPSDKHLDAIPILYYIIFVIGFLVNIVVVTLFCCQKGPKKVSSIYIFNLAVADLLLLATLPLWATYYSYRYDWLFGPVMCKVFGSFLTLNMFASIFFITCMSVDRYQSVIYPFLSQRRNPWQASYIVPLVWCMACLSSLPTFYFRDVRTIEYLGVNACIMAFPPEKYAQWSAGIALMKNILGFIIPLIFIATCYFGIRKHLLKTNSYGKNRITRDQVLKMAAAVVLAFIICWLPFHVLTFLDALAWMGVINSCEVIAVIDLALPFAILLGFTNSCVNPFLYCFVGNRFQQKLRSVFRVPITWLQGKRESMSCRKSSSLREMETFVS
- ASSAY_NAME: HEK-293 cell AT2 receptor binding assay ([125I]-CGP42112 displacement, HEK293-hAT2R)
MEASUREMENT_TYPE: Ki (nM)

>>> df
                              smiles_record  data_value
0  CCCCC(=O)NS(=O)(=O)c1ccc(CCCC)cc1-c1cccc(Cn2cncn2)c1         754
1  CCCCC(=O)NS(=O)(=O)c1ccc(CC(C)C)cc1-c1cccc(Cn2cncn2)c1         874
2  CC(C)Cc1ccc(S(=O)(=O)NC(=O)OC(C)C)c(-c2cccc(Cn3cncn3)c2)c1         116
3  CC(C)COC(=O)NS(=O)(=O)c1ccc(CC(C)C)cc1-c1cccc(Cn2cccn2)c1         916
4  CCCCOc1ccc(S(=O)(=O)NC(=O)OC(C)C)c(-c2cccc(Cn3cncn3)c2)c1        56.6
